Tested on: Mycobacterium tuberculosis
Experiment: Antimycobacterial activity against Mycobacterium bovis BCG assessed as inhibition of bacterial growth at measured by microplate alamar blue assay
Type: functional
Settings: variant bovis BCG
Strictly below 10 µg/mL in MIC50: 1.0. Otherwise: 0.0.

{"Molecule": "CCCCC#Cc1c(C)n([C@@H]2O[C@H](CO)[C@@H](O)[C@H]2O)c(=O)[nH]c1=O", "Classification": 0.0}
{"Molecule": "NNC(=O)c1ccncc1", "Classification": 1.0}
{"Molecule": "Cc1c(C#CC(O)c2ccccc2)c(=O)[nH]c(=O)n1[C@@H]1O[C@H](CO)[C@@H](O)[C@H]1O (stereo partly drawn)", "Classification": 1.0}
{"Molecule": "CCC#Cc1c(C)n([C@@H]2O[C@H](CO)[C@@H](O)[C@H]2O)c(=O)[nH]c1=O", "Classification": 0.0}
{"Molecule": "Cc1c(C#Cc2ccccc2)c(=O)[nH]c(=O)n1[C@@H]1O[C@H](CO)[C@@H](O)[C@H]1O", "Classification": 1.0}
{"Molecule": "N[C@@H]1CONC1=O", "Classification": 1.0}
{"Molecule": "CO[C@H]1/C=C/O[C@@]2(C)Oc3c(C)c(O)c4c(O)c(c(/C=N/N5CCN(C)CC5)c(O)c4c3C2=O)NC(=O)/C(C)=C\\C=C\\[C@H](C)[C@H](O)[C@@H](C)[C@@H](O)[C@@H](C)[C@H](OC(C)=O)[C@@H]1C", "Classification": 1.0}
{"Molecule": "Cc1c(C#CC2CCCCC2)c(=O)[nH]c(=O)n1[C@@H]1O[C@H](CO)[C@@H](O)[C@H]1O", "Classification": 0.0}
{"Molecule": "Cc1c(C#CC2CC2)c(=O)[nH]c(=O)n1[C@@H]1O[C@H](CO)[C@@H](O)[C@H]1O", "Classification": 1.0}
{"Molecule": "CC#Cc1c(C)n([C@@H]2O[C@H](CO)[C@@H](O)[C@H]2O)c(=O)[nH]c1=O", "Classification": 0.0}
{"Molecule": "Cc1c(C#CCC(C)C)c(=O)[nH]c(=O)n1[C@@H]1O[C@H](CO)[C@@H](O)[C@H]1O", "Classification": 0.0}
